// provenance: patent US20240270857A1

Target: T1, Human IL-1Rrp2/IL-1R6 protein, His Tag (ACROBiosystems, IL2-H52H6) (human, UniProt Q9HB29 20-335)
T1 construct: Bought protein; the soluble protein is likely only the extracellular part; also called hIL-36R; human IL36R antigen; not shown: His tag
T1 sequence: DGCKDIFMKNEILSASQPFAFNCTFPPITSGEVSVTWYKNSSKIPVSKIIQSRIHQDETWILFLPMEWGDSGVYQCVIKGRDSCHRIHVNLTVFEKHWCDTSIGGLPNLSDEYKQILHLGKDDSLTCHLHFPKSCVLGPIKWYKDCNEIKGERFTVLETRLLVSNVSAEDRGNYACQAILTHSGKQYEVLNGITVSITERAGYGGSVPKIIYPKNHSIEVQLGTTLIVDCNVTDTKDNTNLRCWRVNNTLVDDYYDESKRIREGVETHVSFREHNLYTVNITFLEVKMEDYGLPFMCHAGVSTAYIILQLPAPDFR
Assay: BLI (ForteBio Octet), antibody on ProA sensor, 1:1 model
Provide the reported koff of each item.
Answers are plain numbers, in s⁻¹.

# count of solved cases: 2
| binder | koff [s⁻¹] |
| --- | --- |
| hz84C4-1.1 (antibody, human IgG4 S228P, kappa, V domains shown, Humanized, human IgG4 / kappa) VH: QVQLVQSGAEVKKPGASVKVSCKASGYFFTSYWMNWVRQAPGQGLEWMGMIHPYDSETRYAQKFQGRVTMTVDKSTSTVYMELSSLRSEDTAVYYCASSTTAFAYWGQGTLVTVSS VL: DIQMTQSPSSLSASVGDRVTITCRASQDIGNALNWYQQKPGKAPKRLIYATSSLDPGVPSRFSGSRSGTDFTLTISSLQPEDFATYYCLQYASSPYTFGQGTKVEIKR | 0.000102 |
| hz84C4-2.3 (antibody, human IgG4 S228P, kappa, V domains shown, Humanized, human IgG4 / kappa) VH: QVQLVQSGAEVKKPGASVKVSCKASGYFFTSYWMNWVRQAPGQGLEWMGMIYPYDSETRYAQKFQGRVTMTVDKSTSTVYMELSSLRSEDTAVYYCASSTTAFAYWGQGTLVTVSS VL: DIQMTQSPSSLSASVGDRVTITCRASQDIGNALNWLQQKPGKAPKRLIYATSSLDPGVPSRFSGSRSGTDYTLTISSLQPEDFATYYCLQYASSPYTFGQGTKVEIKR | 5.12e-05 |

The binder identified as hz84C4-2.1 (antibody, human IgG4 S228P, kappa, V domains shown, Humanized, human IgG4 / kappa) VH: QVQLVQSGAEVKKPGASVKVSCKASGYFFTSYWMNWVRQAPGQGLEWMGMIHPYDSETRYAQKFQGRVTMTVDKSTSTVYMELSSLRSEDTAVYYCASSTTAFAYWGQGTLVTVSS VL: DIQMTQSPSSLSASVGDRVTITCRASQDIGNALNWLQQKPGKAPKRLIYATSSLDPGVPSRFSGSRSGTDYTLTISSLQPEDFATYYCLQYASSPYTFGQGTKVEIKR registered its koff at 0.000116
